# TARGET OF ASSAY: human recombinant PDE9 enzyme (Homo sapiens)
# Sequence (O76083 whole entry): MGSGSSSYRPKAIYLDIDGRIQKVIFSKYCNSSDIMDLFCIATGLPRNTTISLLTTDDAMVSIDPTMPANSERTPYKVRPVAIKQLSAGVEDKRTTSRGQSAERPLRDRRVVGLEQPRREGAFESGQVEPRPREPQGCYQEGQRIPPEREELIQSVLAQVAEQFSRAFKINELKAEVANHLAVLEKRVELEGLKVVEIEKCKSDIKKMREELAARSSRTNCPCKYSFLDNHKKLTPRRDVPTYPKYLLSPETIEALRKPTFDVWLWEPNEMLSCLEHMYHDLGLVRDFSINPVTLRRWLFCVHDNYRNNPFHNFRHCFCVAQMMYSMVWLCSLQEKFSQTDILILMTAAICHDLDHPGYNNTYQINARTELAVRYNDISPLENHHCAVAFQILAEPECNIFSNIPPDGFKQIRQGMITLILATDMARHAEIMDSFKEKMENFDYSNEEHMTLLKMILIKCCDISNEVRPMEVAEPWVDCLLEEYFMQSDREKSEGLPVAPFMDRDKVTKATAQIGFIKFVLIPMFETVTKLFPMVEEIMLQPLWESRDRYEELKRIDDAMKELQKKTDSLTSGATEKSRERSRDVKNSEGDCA
# METHOD SUMMARY: PDE9 IC50, 96-well assay (Phosphodiesterase SPA)
# Format: biochemical
MEASURED PARAMETER: IC50 (nM)
Provide only the numeric value, understood in nM.

Reported IC50, compound "C[C@H](c1nc2c(cnn2C2CCCC2)c(=O)[nH]1)N1CC(Oc2ncccn2)C1" : ____
9.49
